What Total Cell Count was measured for each of the following?
# Test system: HEK-293T
# protocolText: Multiplex assay against HEK293T
# Format: toxicity, cell-based
# condition: human, 24 h, 10 µM, compound concentration 10 uM, replicate 2
Non-standard residues stand in square brackets, D forms with d. Residues, ends and D or L forms follow the SMILES beside them.

Case CC(C)(O)C(=O)N1CCN(c2ccc(C(F)(F)F)c(C3=C(c4c[nH]c5ccccc45)C(=O)NC3=O)c2)CC1 , HEK-293T, Total Cell Count recorded as 212

Simply: COCCn1c(C)c(C)s/c1=N\C(=O)C1C(C)(C)C1(C)C , HEK-293T, Total Cell Count = 376

The reported HEK-293T Total Cell Count of Cc1cc(O)c(-c2ccc([C@@H](C)CN(C)C)cc2)c2c1[nH]c(=O)c1sccc12 is 203

COc1c(Nc2ccc(S(C)(=O)=O)nc2C)ncnc1OC1CCN(C(=O)OC(C)C)CC1 tested on HEK-293T gave Total Cell Count: 300

Test item C=CCN1C[C@H](C(=O)N(CCCN(C)C)C(=O)NCC)C[C@@H]2c3cccc4[nH]cc(c34)C[C@H]21 ; HEK-293T; reported Total Cell Count was 425

Here CC(C)C[C@@H]1NC(=O)[C@@H](C(C)C)NC(=O)[C@@H]2CCCN2C(=O)[C@@H](CC(=O)O)NC(=O)[C@@H](Cc2c[nH]c3ccccc23)NC1=O [BQ-123] (cyclo(L[dW][dD]P[dV])) was tested on HEK-293T, and its Total Cell Count came to 302

Value sought: Total Cell Count, system HEK-293T, item S=C(NCCCc1c[nH]cn1)NCCCN(Cc1ccc(Cl)c(Cl)c1)c1ccc(Br)cn1 . Result: 200

Value sought: Total Cell Count, system HEK-293T, item CCCCC[C@H](O)/C=C/[C@H]1[C@H](O)CC(=O)[C@@H]1CCCCCCC(=O)O . Result: 345

Form: item CC(C)(C)c1ccc(CSc2cnn(C(C)(C)C)c(=O)c2Cl)cc1 ; test system HEK-293T; Total Cell Count: 252

The molecule Cn1cc(C(=O)OCC2CCN(CCNS(C)(=O)=O)CC2)c2ccccc21 on HEK-293T: Total Cell Count was 491

# lookup: C[C@@H]1CC(=O)Nc2cccc(-c3ccc4c(c3)c(-c3cnn(C)c3)nn4C)c2N1 on HEK-293T, Total Cell Count = 381

Here Cl.Cl.OCCOCCN1CCN(C(c2ccccc2)c2ccc(Cl)cc2)CC1 (configuration not stated) [HYDROXYZINE HYDROCHLORIDE] was tested on HEK-293T, and its Total Cell Count came to 383

Kindly note: HEK-293T, Cc1ccc(OCC(O)C(C)NC(C)C)c2c1CCC2.Cl (configuration not stated) , Total Cell Count value reported: 399

Record CN(C)C(=O)Cn1cc(-c2ccc(-c3nnc4ccccn34)cc2)cn1 ; system HEK-293T; Total Cell Count = 425

Bench note, HEK-293T: CN(C)C/C=C/C(=O)Nc1ccc(C(=O)N2CCCC(Nc3ncc(Cl)c(-c4c[nH]c5ccccc45)n3)C2)cc1 (configuration not stated) , Total Cell Count reads 197

Entry Cc1c(Cc2ccc3ccccc3n2)c2cc(F)ccc2n1CC(=O)O , tested on HEK-293T, has a reported Total Cell Count of 475

Note to self: Total Cell Count of CN1CCN(c2ccc(Nc3c4ccccc4nc4ccccc34)cc2)CC1.Cl.Cl.O with HEK-293T was 206

Source listed as ChEMBL document CHEMBL5058577.
